- measurement_target: Cyclin-dependent kinase 5 (Homo sapiens)
- condition_description: at 0.1 µM
For each of the compounds below, state its inhibition.
One number for each entry, in %.

Worked cases, answers included:
API: value(readout= inhibition, system= Cyclin-dependent kinase 5 (Homo sapiens), query= `c1cnn2ncc(-c3ccnc(NCCCN4CCOCC4)n3)c2c1` )
0.21

API: value(readout= inhibition, system= Cyclin-dependent kinase 5 (Homo sapiens), query= `COc1cccc(Nc2nccc(-c3cnn4ncccc34)n2)c1` )
59.3

API: value(readout= inhibition, system= Cyclin-dependent kinase 5 (Homo sapiens), query= `CS(=O)(=O)Nc1ccc(-c2ccc3c(NC(=O)C4CC4)n[nH]c3c2)cc1` );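 note: enzyme tested as the CDK5/p35 complex, values are mean percent inhibition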
0.45

// for each compound in input: emit inhibition
1. COc1ccc(-c2nn3ncccc3c2-c2ccnc(Nc3ccc(F)c(F)c3)n2)cc1
2. O=C(O[C@H]1CN[C@H](C#Cc2cc3ncnc(Nc4ccc(OCc5cccc(F)c5)c(Cl)c4)c3s2)C1)N1CCOCC1

1. 0.48
2. 0.49

###

- measurement_target: MAP kinase-activated protein kinase 3 (Homo sapiens) (UniProt Q16644)
- Sequence (Q16644 whole entry, looked up): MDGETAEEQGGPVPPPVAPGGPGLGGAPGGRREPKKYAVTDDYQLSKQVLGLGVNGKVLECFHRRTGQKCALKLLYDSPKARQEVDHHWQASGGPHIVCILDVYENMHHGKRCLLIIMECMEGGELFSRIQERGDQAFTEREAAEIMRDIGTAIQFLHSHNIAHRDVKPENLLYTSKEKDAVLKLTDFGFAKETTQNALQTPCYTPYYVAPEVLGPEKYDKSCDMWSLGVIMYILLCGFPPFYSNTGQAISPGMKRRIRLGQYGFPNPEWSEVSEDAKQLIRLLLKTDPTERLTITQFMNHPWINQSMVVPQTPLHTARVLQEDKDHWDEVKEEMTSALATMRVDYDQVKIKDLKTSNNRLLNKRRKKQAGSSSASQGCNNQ
- condition_description: at 0.1 µM
- Description: GSK_PKIS: MAPKAPK3 mean inhibition at 0.1 uM [Nanosyn]
For each of the compounds below, state its inhibition.
Answers are plain numbers, in %.

Worked cases, answers included:
API: value(readout= inhibition, system= MAP kinase-activated protein kinase 3 (Homo sapiens) (UniProt Q16644), query= `COc1cccc(-n2ncc3c(N/N=C/c4ccc(C(=O)NCCN(C)C)cc4)ncnc32)c1` )
1.89

API: value(readout= inhibition, system= MAP kinase-activated protein kinase 3 (Homo sapiens) (UniProt Q16644), query= `O=C(O[C@H]1CN[C@H](C#Cc2cc3ncnc(Nc4ccc5c(ccn5Cc5cc(F)ccc5F)c4)c3s2)C1)N1CCOCC1` )
-1.09

API: value(readout= inhibition, system= MAP kinase-activated protein kinase 3 (Homo sapiens) (UniProt Q16644), query= `NS(=O)(=O)c1ccc(N/N=C2\C(=O)Nc3cccc(CCc4ccncc4)c32)cc1` )
0.82

API: value(readout= inhibition, system= MAP kinase-activated protein kinase 3 (Homo sapiens) (UniProt Q16644), query= `Cc1cc(O)cc(C)c1/C=C/c1cncc(C(N)=O)c1` )
1.57

Further cases:
API: value(readout= inhibition, system= MAP kinase-activated protein kinase 3 (Homo sapiens) (UniProt Q16644), query= `NC(=O)c1ccc2c(-c3ccnc(NCCCO)n3)c(-c3ccc(F)cc3)nn2c1` )
39.7

###

- measurement_target: Tyrosine-protein kinase ABL1 (Homo sapiens)
- condition_description: at 0.1 µM
- Description: GSK_PKIS: ABL1 mean inhibition at 0.1 uM [Nanosyn]
For each of the compounds below, state its inhibition.
Numbers only, in %.

Worked cases, answers included:
Fill blank: measured inhibition of the compound `COc1cc(Nc2ncc(-c3ccccc3)o2)cc(OC)c1` is ____.
8.41

Fill blank: measured inhibition of the compound `NC(=O)c1ccc2c(-c3ccnc(NCCCO)n3)c(-c3ccc(F)cc3)nn2c1` is ____.
4.37

Fill blank: measured inhibition of the compound `CS(=O)(=O)CCNCc1ccc(-c2ccc3ncnc(Nc4ccc(OCc5cccc(C(F)(F)F)c5)cc4)c3c2)o1` is ____.
6.46

Fill blank: measured inhibition of the compound `CCS(=O)(=O)c1ccc(OC)c(Nc2ncc(-c3cccc(C(C)=O)c3)o2)c1` is ____.
13.4

Fill blank: measured inhibition of the compound `CNC(=O)c1cncc(/C=C/c2ccccc2C)c1` is ____.
5.99

Fill blank: measured inhibition of the compound `CN1CCC(n2cnc(-c3ccc(F)cc3)c2-c2ccnc(NCCO)n2)CC1` is ____.
3.67

Fill blank: measured inhibition of the compound `O=C1Nc2ccccc2/C1=C1\CCc2cc(O)ccc21` is ____.
3.68

Fill blank: measured inhibition of the compound `NS(=O)(=O)c1ccc(N/N=C2\C(=O)Nc3cccc(CCc4ccncc4)c32)cc1` is ____.
3.11

Fill blank: measured inhibition of the compound `COc1cccc(Nc2nccc(-c3cnn4ncccc34)n2)c1` is ____.
4.97

Fill blank: measured inhibition of the compound `Cc1nnc(-c2cccc(-c3ccc(C(=O)NCC4CC4)cc3)c2)o1` is ____.
5.41

// for each compound in input: emit inhibition
1. CC1=C(C(=O)Nc2ccc3[nH]ncc3c2)C(c2ccc(F)cc2)N=C(c2ccc(C(F)(F)F)nc2)N1 (stereo unspecified)
2. CS(=O)(=O)CCNCc1ccoc1-c1ccc2ncnc(Nc3ccc(OCc4ccccc4)cc3)c2c1
3. CN(c1ccc(NC(=O)NCCN2CCOCC2)cc1)c1ccnc(Nc2ccc(CS(C)(=O)=O)cc2)n1
4. Fc1cccc(COc2ccc(Nc3ncncc3C#Cc3ccccc3)cc2Cl)c1
5. CC1=C(C(=O)Nc2ccc3[nH]nc(C)c3c2)C(c2ccc(C(F)(F)F)cc2)CC(=O)N1 (stereo unspecified)
6. COC(=O)Nc1nc2cc(Oc3ccc(NC(=O)Nc4ccccc4)cc3)ccc2[nH]1
7. CC1(C)CC(n2cnc(-c3ccc(F)cc3)c2-c2ccnc(N)n2)CC(C)(C)N1
8. COc1ccc2ncn(-c3cc(O[C@H](C)c4ccccc4C(F)(F)F)c(C(N)=O)s3)c2c1

1: 3.97; 2: 2.05; 3: 4.29; 4: 4.16; 5: 7.68; 6: 5.66; 7: -0.56; 8: 0.27

###

- measurement_target: Tyrosine-protein kinase Mer (Homo sapiens) (UniProt Q12866)
- Sequence (Q12866 whole entry): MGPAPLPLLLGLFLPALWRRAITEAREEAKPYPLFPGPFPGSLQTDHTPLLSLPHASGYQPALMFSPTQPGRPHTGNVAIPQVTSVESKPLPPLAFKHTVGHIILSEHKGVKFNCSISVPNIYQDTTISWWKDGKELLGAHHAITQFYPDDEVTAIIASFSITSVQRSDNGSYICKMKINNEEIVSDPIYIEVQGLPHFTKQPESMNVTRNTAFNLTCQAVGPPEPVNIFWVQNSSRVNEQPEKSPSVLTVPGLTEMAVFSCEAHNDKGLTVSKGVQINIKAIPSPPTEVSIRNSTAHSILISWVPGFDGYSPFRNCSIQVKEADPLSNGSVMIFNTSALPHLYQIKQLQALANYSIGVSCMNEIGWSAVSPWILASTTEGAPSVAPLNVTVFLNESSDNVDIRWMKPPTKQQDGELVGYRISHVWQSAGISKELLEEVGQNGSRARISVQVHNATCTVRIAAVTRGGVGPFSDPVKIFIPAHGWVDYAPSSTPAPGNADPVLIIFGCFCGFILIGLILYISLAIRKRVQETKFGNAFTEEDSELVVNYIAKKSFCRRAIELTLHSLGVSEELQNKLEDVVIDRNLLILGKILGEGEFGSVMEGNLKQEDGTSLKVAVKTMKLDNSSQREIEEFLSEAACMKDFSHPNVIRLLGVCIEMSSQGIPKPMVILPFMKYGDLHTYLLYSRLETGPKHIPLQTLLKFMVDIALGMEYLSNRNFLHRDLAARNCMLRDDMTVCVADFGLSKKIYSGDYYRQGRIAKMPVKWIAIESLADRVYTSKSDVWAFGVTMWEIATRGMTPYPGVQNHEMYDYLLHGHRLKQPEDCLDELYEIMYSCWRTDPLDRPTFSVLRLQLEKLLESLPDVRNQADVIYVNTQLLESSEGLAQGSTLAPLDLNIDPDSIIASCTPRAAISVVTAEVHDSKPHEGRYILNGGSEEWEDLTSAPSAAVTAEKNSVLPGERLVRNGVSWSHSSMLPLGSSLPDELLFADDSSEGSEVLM
- condition_description: at 0.1 µM
For each of the compounds below, state its inhibition.
One number for each entry, in %.

Worked cases, answers included:
API: value(readout= inhibition, system= Tyrosine-protein kinase Mer (Homo sapiens) (UniProt Q12866), query= `Cc1cc(O)cc(C)c1/C=C/c1cncc(C(=O)OC(C)(C)C)c1` )
1.26

API: value(readout= inhibition, system= Tyrosine-protein kinase Mer (Homo sapiens) (UniProt Q12866), query= `CCS(=O)(=O)c1ccc(OC)c(Nc2ncc(-c3cccc(C(C)=O)c3)o2)c1` )
1.15

API: value(readout= inhibition, system= Tyrosine-protein kinase Mer (Homo sapiens) (UniProt Q12866), query= `CCOc1ccc2c(-c3ccnc(Nc4cc(OC)cc(C(F)(F)F)c4)n3)cnn2n1` );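 note: reported value is a mean inhibition of MER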
1.11

// for each compound in input: emit inhibition
1. Cn1c(-c2nonc2N)nc2cnccc21
2. Fc1ccc(Nc2nccc(-c3c(-c4ccc(C(F)(F)F)cc4)nn4ncccc34)n2)cc1F

1. 1.12
2. 3.18

###

- measurement_target: Receptor tyrosine-protein kinase erbB-4 (Homo sapiens) (UniProt Q15303);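 note: values are averaged percent inhibition of ERBB4 kinase activity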
- Sequence (Q15303 whole entry): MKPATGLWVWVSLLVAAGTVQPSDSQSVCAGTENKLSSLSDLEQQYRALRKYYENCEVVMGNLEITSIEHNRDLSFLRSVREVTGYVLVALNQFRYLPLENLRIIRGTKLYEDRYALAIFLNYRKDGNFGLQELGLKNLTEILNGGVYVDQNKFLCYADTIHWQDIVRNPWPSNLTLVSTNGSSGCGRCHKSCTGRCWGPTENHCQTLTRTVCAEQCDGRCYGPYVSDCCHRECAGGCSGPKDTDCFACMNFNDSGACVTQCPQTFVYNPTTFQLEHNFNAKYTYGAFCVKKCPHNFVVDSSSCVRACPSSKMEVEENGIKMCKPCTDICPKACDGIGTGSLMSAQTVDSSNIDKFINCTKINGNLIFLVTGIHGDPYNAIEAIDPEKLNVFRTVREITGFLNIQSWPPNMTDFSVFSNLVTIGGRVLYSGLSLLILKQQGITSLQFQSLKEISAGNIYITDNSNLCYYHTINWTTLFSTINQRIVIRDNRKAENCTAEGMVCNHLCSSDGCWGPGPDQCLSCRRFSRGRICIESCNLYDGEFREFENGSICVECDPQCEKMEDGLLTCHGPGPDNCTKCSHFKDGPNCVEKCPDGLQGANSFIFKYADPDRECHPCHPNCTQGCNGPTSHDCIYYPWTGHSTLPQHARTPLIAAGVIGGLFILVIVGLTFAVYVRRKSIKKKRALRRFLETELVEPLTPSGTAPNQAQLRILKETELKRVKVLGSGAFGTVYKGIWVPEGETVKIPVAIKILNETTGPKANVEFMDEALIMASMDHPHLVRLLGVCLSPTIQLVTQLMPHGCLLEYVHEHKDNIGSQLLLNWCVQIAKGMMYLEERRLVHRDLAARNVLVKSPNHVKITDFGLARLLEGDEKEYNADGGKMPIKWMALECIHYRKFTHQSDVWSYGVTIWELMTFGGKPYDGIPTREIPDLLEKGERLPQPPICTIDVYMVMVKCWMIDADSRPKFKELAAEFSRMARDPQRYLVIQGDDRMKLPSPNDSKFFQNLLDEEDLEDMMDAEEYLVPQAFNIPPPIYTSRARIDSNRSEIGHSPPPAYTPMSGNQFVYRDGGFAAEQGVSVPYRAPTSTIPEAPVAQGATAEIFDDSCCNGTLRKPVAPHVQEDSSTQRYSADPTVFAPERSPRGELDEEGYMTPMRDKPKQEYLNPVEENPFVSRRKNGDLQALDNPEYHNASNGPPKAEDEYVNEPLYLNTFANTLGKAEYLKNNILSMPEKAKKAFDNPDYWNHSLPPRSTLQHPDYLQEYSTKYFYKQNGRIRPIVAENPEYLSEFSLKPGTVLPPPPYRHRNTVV
- condition_description: at 0.1 µM
For each of the compounds below, state its inhibition.
Give bare numbers, in %.

Worked cases, answers included:
Fill blank: measured inhibition of the compound `NS(=O)(=O)c1ccc(N/N=C2\C(=O)Nc3cccc(CCc4ccncc4)c32)cc1` is ____.
4.66

Fill blank: measured inhibition of the compound `COC(=O)Nc1nc2cc(Oc3ccc(NC(=O)Nc4ccccc4)cc3)ccc2[nH]1` is ____.
7.18

Fill blank: measured inhibition of the compound `CN(c1ccc(NC(=O)NCCN2CCOCC2)cc1)c1ccnc(Nc2ccc(CS(C)(=O)=O)cc2)n1` is ____.
6.8

Fill blank: measured inhibition of the compound `Fc1ccc(Nc2nccc(-c3c(-c4ccc(C(F)(F)F)cc4)nn4ncccc34)n2)cc1F` is ____.
9.22

Proceed to the following item.
Fill blank: measured inhibition of the compound `FC(F)(F)CNc1nccc(-c2cnn3ncccc23)n1` is ____.
13.2

###

For each of the molecules below, state its inhibition.
- measurement_target: Serine/threonine-protein kinase pim-3 (Homo sapiens) (UniProt Q86V86);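 note: mean inhibition of PIM3 kinase activity, recorded in the GSK_PKIS screening set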
- condition_description: at 0.1 µM
One number for each entry, in %.

Fill blank: measured inhibition of the molecule `CCN1CCC(C(=O)Nc2n[nH]c3nnc(-c4cccc(F)c4F)cc23)CC1` is ____.
-0.6

// for each molecule in input: emit inhibition
1. Cc1cc(O)cc(C)c1/C=C/c1cncc(C(N)=O)c1
2. Fc1ccc(Nc2nccc(-c3c(-c4ccc(C(F)(F)F)cc4)nn4ncccc34)n2)cc1F
3. CS(=O)(=O)CCNCc1ccc(-c2ccc3ncnc(Nc4ccc(OCc5ccccc5)cc4)c3c2)o1
4. CS(=O)(=O)Nc1ccc(-c2ccc3c(NC(=O)C4CC4)n[nH]c3c2)cc1
5. NC(=O)c1ccc2c(-c3ccnc(NCCCO)n3)c(-c3ccc(F)cc3)nn2c1
6. Cn1c(-c2nonc2N)nc2cnccc21

[-0.22, -0.88, 0.79, 0.02, -0.5, -0.24]

###

- measurement_target: Angiopoietin-1 receptor (Homo sapiens)
- condition_description: at 0.1 µM
- Description: GSK_PKIS: TIE2 mean inhibition at 0.1 uM [Nanosyn]
For each of the molecules below, state its inhibition.
Answers are plain numbers, in %.

Fill blank: measured inhibition of the molecule `CN(C)CCNC(=O)Nc1ccc(N(C)c2ccnc(Nc3ccc(CS(C)(=O)=O)cc3)n2)cc1` is ____.
2.91

Fill blank: measured inhibition of the molecule `CCS(=O)(=O)c1ccc(OC)c(Nc2ncc(-c3cccc(F)c3)o2)c1` is ____.
4.21

// for each molecule in input: emit inhibition
1. CCOc1ccc2c(-c3ccnc(Nc4cc(OC)cc(C(F)(F)F)c4)n3)cnn2n1
2. Fc1ccc(Nc2nccc(-c3c(-c4ccc(C(F)(F)F)cc4)nn4ncccc34)n2)cc1F
3. COc1ccc(Nc2ncc(-c3ccccc3)o2)cc1OC

1. 7.37
2. 1.72
3. 2.1
